# IC50 per entry for PIK3CA (human)

# Structure String, IC50
records = [
    ("CS(=O)(=O)Nc1cc(-c2ccc3nc(NC(=O)C4CC4)sc3n2)cnc1Cl", "< 100 nM"),
    ("CCS(=O)(=O)Nc1cc(-c2ccc3nc(NC(C)=O)sc3n2)cnc1Cl", "< 100 nM"),
    ("CC(=O)Nc1nc2ccc(-c3ccc4[nH]ccc4c3)nc2s1", "100 to 1000 nM"),
    ("CC(=O)Nc1nc2cnc(-c3cnc(Cl)c(N)c3)nc2s1", "100 to 1000 nM"),
]

----------
Reported pIC50 values follow for various compounds
target: PIK3CA (human) (UniProt P42336)
Sequence (P42336 whole entry, looked up): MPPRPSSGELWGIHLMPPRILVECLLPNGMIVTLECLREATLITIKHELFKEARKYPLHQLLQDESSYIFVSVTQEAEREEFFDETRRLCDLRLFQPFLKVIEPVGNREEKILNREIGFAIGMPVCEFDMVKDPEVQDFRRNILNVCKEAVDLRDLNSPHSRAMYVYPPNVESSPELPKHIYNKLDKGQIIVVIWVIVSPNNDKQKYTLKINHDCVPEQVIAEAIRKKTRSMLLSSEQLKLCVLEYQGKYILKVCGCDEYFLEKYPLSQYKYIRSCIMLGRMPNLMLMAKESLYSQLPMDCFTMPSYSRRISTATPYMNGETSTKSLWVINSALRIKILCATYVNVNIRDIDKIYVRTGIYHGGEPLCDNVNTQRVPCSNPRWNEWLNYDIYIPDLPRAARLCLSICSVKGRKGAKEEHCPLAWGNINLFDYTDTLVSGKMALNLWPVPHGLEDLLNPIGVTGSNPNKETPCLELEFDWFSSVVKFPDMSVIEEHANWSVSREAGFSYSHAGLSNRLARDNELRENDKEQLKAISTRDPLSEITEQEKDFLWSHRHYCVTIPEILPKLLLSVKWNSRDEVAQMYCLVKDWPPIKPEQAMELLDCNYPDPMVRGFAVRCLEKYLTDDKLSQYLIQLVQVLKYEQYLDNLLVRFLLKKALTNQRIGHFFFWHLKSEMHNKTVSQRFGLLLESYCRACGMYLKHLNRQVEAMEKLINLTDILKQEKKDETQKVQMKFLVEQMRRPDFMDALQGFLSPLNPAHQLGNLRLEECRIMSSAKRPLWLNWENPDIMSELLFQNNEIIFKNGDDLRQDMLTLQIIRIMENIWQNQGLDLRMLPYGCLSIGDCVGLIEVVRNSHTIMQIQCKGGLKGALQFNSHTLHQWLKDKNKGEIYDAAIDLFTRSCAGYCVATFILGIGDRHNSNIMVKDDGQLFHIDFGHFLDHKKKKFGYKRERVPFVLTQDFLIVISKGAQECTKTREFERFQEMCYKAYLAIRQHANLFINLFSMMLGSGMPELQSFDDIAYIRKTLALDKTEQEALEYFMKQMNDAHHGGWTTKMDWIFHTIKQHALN
pIC50: −log10 of the molar value.

# Structure String, pIC50
records = [
    ("CNC(=O)c1ccc(-c2ccc3nc(NC(C)=O)sc3n2)cc1", "> 7.00"),
    ("CC(=O)Nc1nc2ccc(-c3ccc4[nH]ncc4c3)nc2s1", "> 7.00"),
    ("CC(=O)Nc1nc2ccc(-c3ccccc3N)nc2s1", "6.00 to 7.00"),
    ("CC(=O)Nc1nc2ccc(-c3ccc(C#N)nc3)nc2s1", "6.00 to 7.00"),
    ("CC(=O)Nc1nc2ccc(-c3ccc(-c4nnc[nH]4)cc3)nc2s1", "> 7.00"),
    ("CC(=O)Nc1nc2ccc(-c3cnc4cc[nH]c4c3)nc2s1", "> 7.00"),
]

----------
molecular target: PIK3CA (human); assay: Assessment of PIK3CA Kinase Activity
Reported IC50 values follow for various compounds
Measurement Name: IC50

# Structure String, Target, Result
data = [
    ("CC(=O)Nc1nc2ccc(-c3ccc(N)cc3)cc2s1", "PIK3CA (human)", "100 to 1000 nM"),
    ("CC(=O)Nc1nc2ccc(-c3cnc(Cl)c(NS(C)(=O)=O)c3)nc2s1", "PIK3CA (human)", "< 100 nM"),
    ("CC(=O)Nc1nc2cnc(-c3cnc(N)c(C(F)(F)F)c3)nc2s1", "PIK3CA (human)", "< 100 nM"),
    ("CC(=O)Nc1nc2ccc(-c3ccncc3)nc2s1", "PIK3CA (human)", "100 to 1000 nM"),
    ("CC(=O)Nc1nc2ccc(-c3cnc4[nH]ccc4c3)nc2s1", "PIK3CA (human)", "< 100 nM"),
    ("CC(=O)Nc1nc2cnc(-c3ccc(N)nc3)nc2s1", "PIK3CA (human)", "100 to 1000 nM"),
]

Taken from the Kinase Knowledgebase extract (Sharma et al. 2016).
